# assaySystem: H1047R PIK3CA enzyme (Homo sapiens, UniProt P42336, H1047R)
# Sequence (P42336 whole entry H1047R): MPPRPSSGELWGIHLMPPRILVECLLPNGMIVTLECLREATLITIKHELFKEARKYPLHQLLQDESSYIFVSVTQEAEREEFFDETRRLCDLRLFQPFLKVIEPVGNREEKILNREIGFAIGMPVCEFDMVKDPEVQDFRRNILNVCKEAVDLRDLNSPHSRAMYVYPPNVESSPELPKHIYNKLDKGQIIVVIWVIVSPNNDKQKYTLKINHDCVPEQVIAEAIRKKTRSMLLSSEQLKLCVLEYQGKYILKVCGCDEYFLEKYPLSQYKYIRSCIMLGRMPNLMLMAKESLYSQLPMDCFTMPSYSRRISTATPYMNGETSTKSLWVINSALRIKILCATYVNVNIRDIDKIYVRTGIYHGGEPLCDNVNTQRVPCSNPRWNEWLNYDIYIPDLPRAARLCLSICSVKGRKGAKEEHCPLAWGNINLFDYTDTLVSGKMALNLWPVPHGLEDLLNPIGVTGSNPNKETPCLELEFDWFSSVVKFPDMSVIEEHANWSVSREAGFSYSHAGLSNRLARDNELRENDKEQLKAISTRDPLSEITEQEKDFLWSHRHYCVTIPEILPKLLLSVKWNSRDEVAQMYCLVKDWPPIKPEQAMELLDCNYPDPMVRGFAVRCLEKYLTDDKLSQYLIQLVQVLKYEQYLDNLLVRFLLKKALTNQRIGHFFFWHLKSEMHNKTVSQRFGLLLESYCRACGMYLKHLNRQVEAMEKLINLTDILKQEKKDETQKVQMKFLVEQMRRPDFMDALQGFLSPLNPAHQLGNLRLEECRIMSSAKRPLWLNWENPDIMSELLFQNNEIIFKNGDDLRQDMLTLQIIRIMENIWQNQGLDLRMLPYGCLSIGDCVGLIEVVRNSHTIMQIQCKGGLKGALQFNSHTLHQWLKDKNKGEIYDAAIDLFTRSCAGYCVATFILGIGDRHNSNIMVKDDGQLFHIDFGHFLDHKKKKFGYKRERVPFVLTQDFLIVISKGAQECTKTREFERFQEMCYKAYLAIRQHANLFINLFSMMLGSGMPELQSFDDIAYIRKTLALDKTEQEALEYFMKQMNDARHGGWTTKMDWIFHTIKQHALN
# Sequence (P27986 whole entry partner): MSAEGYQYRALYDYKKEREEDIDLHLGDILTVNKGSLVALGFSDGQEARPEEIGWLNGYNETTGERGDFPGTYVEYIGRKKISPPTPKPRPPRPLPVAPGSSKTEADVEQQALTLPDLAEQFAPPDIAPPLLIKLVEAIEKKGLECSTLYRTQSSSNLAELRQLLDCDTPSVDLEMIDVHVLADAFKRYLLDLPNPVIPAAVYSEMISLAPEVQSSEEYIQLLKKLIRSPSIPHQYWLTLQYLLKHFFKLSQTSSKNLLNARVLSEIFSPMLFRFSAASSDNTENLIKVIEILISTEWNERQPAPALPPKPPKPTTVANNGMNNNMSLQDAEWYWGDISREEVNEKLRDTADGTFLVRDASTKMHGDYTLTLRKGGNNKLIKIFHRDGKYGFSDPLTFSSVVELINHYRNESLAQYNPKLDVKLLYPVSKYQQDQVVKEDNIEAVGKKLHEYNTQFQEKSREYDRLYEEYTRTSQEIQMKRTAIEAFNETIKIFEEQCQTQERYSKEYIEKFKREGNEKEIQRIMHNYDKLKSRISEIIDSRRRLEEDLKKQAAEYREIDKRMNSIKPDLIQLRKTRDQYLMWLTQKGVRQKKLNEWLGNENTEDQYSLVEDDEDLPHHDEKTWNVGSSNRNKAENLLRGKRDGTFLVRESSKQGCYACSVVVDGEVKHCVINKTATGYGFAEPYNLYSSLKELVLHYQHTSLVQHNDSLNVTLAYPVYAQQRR
# protocolDetails: ADP-Glo Biochemical PIK3CA Kinase Assay
measuredProperty: IC50

Consider the worked cases shown below.
# compound, IC50
records = [
    ("O=C1NC(c2cc(F)ccc2Cl)c2c(Nc3coc4ccccc34)cc(Br)cc21 (stereo not shown)", "1000 to 10000 nM"),
    ("COc1cc(F)c(F)c(C(=O)Nc2cccc3c2C(c2ccccc2C)NC3=O)c1 (stereo not shown)", "10000 to 100000 nM"),
    ("N#Cc1cc(-c2ccc(=O)[nH]c2)cc2c1C(c1cc(F)ccc1Cl)NC2=O (stereo not shown)", "10000 to 100000 nM"),
    ("O=C(Nc1cnc(N2CC(F)(F)C2)c2c1C(c1cc(F)ccc1Cl)NC2=O)c1cc(F)cc(C(F)(F)F)c1 (stereo not shown)", "100 to 500 nM"),
]

Quick check: IC50 on H1047R PIK3CA enzyme (Homo sapiens, UniProt P42336, H1047R), item CN1CC[C@@H](Nc2cc(NC(=O)c3cc(F)cc(C(F)(F)F)c3)c3c(c2)C(=O)NC3c2cc(F)ccc2Cl)C1 (stereo partly shown) ?
≤ 100 nM

N#Cc1cccc(S(=O)(=O)Cc2cc(NC(=O)c3cc(F)cc(C(F)(F)F)c3)c3c(c2)C(=O)N[C@H]3c2cc(F)ccc2Cl)c1 , same question.
≤ 100 nM

Input CN1CCN(C(=O)Nc2cc(Br)cc3c2[C@@H](c2cc(F)ccc2Cl)NC3=O)CC1 (single isomer, unassigned)
10000 to 100000 nM

Same read-out for O=C(Nc1cc(-c2ccc(=O)n(C3CC3)c2)cc2c1[C@H](c1cc(F)ccc1Cl)NC2=O)c1cc(F)cc(C(F)(F)F)c1 ?
≤ 100 nM

Next up: O=C1NC(c2cc(F)ccc2Cl)c2c(NC(=O)c3cc(F)cc4c(Cl)c[nH]c34)cccc21 (stereo not shown)
100 to 500 nM

Next: O=C(Nc1cc(CC2CCO2)cc2c1C(c1cc(F)ccc1Cl)NC2=O)c1cc(F)cc(C(F)(F)F)c1 (stereo not shown)
≤ 100 nM

What about this compound? O=C(Nc1cc(CS(=O)(=O)N2CCOCC2)cc2c1[C@H](c1cc(F)ccc1Cl)NC2=O)c1cc(F)cc(C(F)(F)F)c1
≤ 100 nM

What do you have for O=C1NC(c2cc(F)ccc2Cl)c2c(NC(=O)N3CC(O)c4cc(F)ccc43)cc(-n3cncn3)cc21 (mixture of isomers) ?
100 to 500 nM

Next compound: CN1C[C@@H](COc2cc(NC(=O)c3cc(F)cc(C(F)(F)F)c3)c3c(c2)C(=O)N[C@H]3c2cc(F)ccc2Cl)CC1=O (single isomer, unassigned)
10000 to 100000 nM

###

# assaySystem: H1047R PIK3CA enzyme (Homo sapiens, UniProt P42336, H1047R)
# protocolDetails: ADP-Glo Biochemical PIK3CA Kinase Assay
pIC50: −log10 of the molar value.
measuredProperty: pIC50

// below: answered molecules
# molecule, pIC50
measured = [
    ("O=C(Nc1cc(NC(=O)N2CC(F)(F)C2)cc2c1C(c1cc(F)ccc1Cl)NC2=O)c1cc(F)cc(C(F)(F)F)c1 (stereo not drawn)", "≥ 7.00"),
    ("O=C1NC(c2cc(F)ccc2Cl)c2c(NC(=O)c3nccc4ccccc34)cc(Br)cc21 (stereo not drawn)", "4.00 to 5.00"),
    ("CC(C)(O)COc1cc(NC(=O)c2cc(F)cc(C(F)(F)F)c2)c2c(c1)C(=O)N[C@@H]2c1cc(F)ccc1Cl", "5.00 to 6.00"),
]

Tell me the measured pIC50 of O=C(Nc1cc(-n2ccnc2)cc2c1C(c1cc(F)ccc1Cl)NC2=O)c1cc(F)cc(C(F)(F)F)c1 (stereo not drawn) , please.
≥ 7.00

# repeat for O=C(Nc1cc(NC2=NC3(CO2)CC(F)(F)C3)cc2c1C(c1cc(F)ccc1Cl)NC2=O)c1cc(F)cc(C(F)(F)F)c1 (stereo not drawn)
≥ 7.00

Now consider O=C(Nc1cc(Br)cc2c1C(c1cc(F)ccc1Cl)NC2=O)c1cnn(-c2ccccc2)c1 (stereo not drawn) and answer again.
4.00 to 5.00

Check O=C1NC(c2cc(F)ccc2Cl)c2c(NC(=O)N3CCC4(C3)CC4(F)F)cc(-c3ccc4ncnn4c3)cc21 (stereo not drawn) too.
5.00 to 6.00

Same read-out for Cc1cc(F)cc(C(=O)Nc2cc(Br)cc3c2C(c2cc(F)ccc2Cl)NC3=O)c1 (stereo not drawn) ?
5.00 to 6.00

Consider next the molecule O=C1N[C@@H](c2cc(F)ccc2Cl)c2c(NC(=O)N3C[C@@](O)(C(F)(F)F)c4cc(F)ccc43)cc(C(F)F)cc21 (single isomer, unassigned) in the same way.
5.00 to 6.00

Query O=C(Nc1cc(-c2cccc3ncccc23)cc2c1C(c1cc(F)ccc1Cl)NC2=O)c1cc(F)cc(C(F)(F)F)c1 (stereo not drawn) next
≥ 7.00

Field entry: O=C(Nc1cc(O)cc2c1C(c1cc(F)ccc1Cl)NC2=O)c1cc(F)cc(C(F)(F)F)c1 (stereo not drawn)
≥ 7.00

Do the same for O=C1NC(c2cc(F)ccc2C(F)F)c2c(NC(=O)c3nsc4ccccc34)cc(Br)cc21 (stereo not drawn) please
≥ 7.00

Query CS(=O)(=O)N1CC(c2cc(NC(=O)c3cc(F)cc(C(F)(F)F)c3)c3c(c2)C(=O)NC3c2cc(F)ccc2Cl)C1 (stereo not drawn) next
≥ 7.00

Param item: CC(C)(O)c1cc(NC(=O)c2cc(F)cc(C(F)(F)F)c2)c2c(c1)C(=O)NC2c1cc(F)ccc1Cl (stereo not drawn)
≥ 7.00

One more molecule: Cc1ccccc1C1NC(=O)c2cccc(NC(=O)c3csc4ccc(F)cc34)c21 (stereo not drawn)
6.30 to 7.00

Next entry: O=C1N[C@@H](c2cccc(F)c2F)c2c(NC(=O)c3csc4ccccc34)ccnc21
6.00 to 6.30

What would you report for O=C(Nc1cc(-c2nc3ccccc3[nH]2)cc2c1C(c1cc(F)ccc1Cl)NC2=O)c1cc(F)cc(C(F)(F)F)c1 (stereo not drawn) ?
≥ 7.00

Next up: O=C1NC(c2cc(F)ccc2Cl)c2c(NC(=O)[C@H]3C[C@H](O)C[C@@H](C(F)(F)F)C3)cc(Br)cc21 (stereo partly drawn)
5.00 to 6.00

Next: Cn1ncc(-c2cc(NC(=O)c3cc(F)cc(C(F)(F)F)c3)c3c(c2)C(=O)N[C@H]3c2cc(F)ccc2Cl)c1C#N
≥ 7.00

Would you mind doing O=C(Nc1cc(Br)cc2c1C(c1cc(F)ccc1Cl)NC2=O)c1ccnc(C(F)(F)F)c1 (stereo not drawn) as well?
4.00 to 5.00

Consider next the molecule CC(O)(c1cc(NC(=O)c2cc(F)cc(C(F)(F)F)c2)c2c(c1)C(=O)NC2c1cc(F)ccc1Cl)c1ccccn1 (stereo not drawn) in the same way.
≥ 7.00

What about O=C1NC(c2cc(F)ccc2Cl)c2c(NC(=O)C3CCCC(F)C3)cc(-c3ccc4ncnn4c3)cc21 (stereo not drawn) ?
5.00 to 6.00

Please answer likewise for O=C1N[C@@H](c2cc(F)ccc2Cl)c2c(NC(=O)N3C[C@](O)(C(F)(F)F)c4cc(F)ccc43)ccc(Cl)c21 (single isomer, unassigned)
5.00 to 6.00

// repeat for COc1ccc([C@H](C)N2C(=O)c3cc(Br)cc(N)c3[C@H]2c2cc(F)ccc2Cl)cc1 (racemic) and report
5.00 to 6.00

Okay, and C[C@]1(O)CN(C(=O)Nc2cccc3c2[C@@H](c2cc(F)ccc2Cl)NC3=O)c2ccccc21 (single isomer, unassigned) ?
5.00 to 6.00

Also check O=C1NC(c2cc(F)ccc2Cl)c2c(NC(=O)N3CCC(F)C3)cc(Br)cc21 (stereo not drawn)
4.00 to 5.00

Please do the same for O=C1NC(c2cc(F)ccc2Cl)c2c(NC(=O)C3CCC(C(F)(F)F)CC3)cc(Br)cc21 (stereo not drawn) as well.
5.00 to 6.00
